SETUP CONDITIONS: in water, 283.15 K
PARAMETER: solubility (mole fraction)

stdin: Bench note: what solubility (mole fraction) did CCOC(=O)[C@@H]1CSCN1.Cl show?
stdout: 0.0825

* * *

SETUP CONDITIONS: in ethyl acetate, 283.15 K
PARAMETER: solubility (mole fraction)
Answers are plain numbers.

stdin: Fill blank: measured solubility (mole fraction) of the compound CCOC(=O)[C@@H]1CSCN1.Cl is ____.
stdout: 0.000103

* * *

SETUP CONDITIONS: in sec-butanol, 313.15 K
PARAMETER: solubility (mole fraction)
Answers are plain numbers.

stdin: Could you tell me which solubility (mole fraction) is on file for CCOC(=O)[C@@H]1CSCN1.Cl ?
stdout: 0.00365

* * *

SETUP CONDITIONS: in dichloromethane, 293.15 K
PARAMETER: solubility (mole fraction)
One number for each entry.

stdin: Dear colleague, I am looking for the recorded solubility (mole fraction) of the following compound: CCOC(=O)[C@@H]1CSCN1.Cl
stdout: 0.0128

Origin of the recorded values: BigSolDB 2.1
